System: follistatin
experimental.protocol: Follistatin mRNA expression in HepG2 cells
Format: cell-based, human
experimental.conditions: HepG2 cells, Experiment 1, basal (no insulin), four hours; UTC = 100
In the oligonucleotide strings, read from the 5' end, every base follows the letter of its sugar. An asterisk marks phosphorothioate; unmarked linkages are phosphodiester. Other units and linkages are bracketed, terminal groups are in braces. A string of capitals states the bases alone. e = 2'-O-(2-methoxyethyl) (MOE); [5mC] = 5-methylcytosine
Follistatin mRNA by entry:
quantity.kind: Follistatin mRNA

>>> experimental_result("327961 (antisense eG*eG*eG*eG*eT*eA*eT*eT*eT*eG*eA*e[5mC]*eA*eA*eA*e[5mC]*eT*eG*eA*e[5mC]*eA) [compound 327961]")
113
>>> experimental_result("327911 (antisense eG*e[5mC]*eT*eA*e[5mC]*e[5mC]*eT*eG*e[5mC]*eA*e[5mC]*eT*eG*eT*eA*eA*eG*e[5mC]*eA*e[5mC]*eT*eT*eT*eT) [compound 327911]")
81
>>> experimental_result("327885 (antisense eA*e[5mC]*eT*eA*e[5mC]*e[5mC]*eT*eG*e[5mC]*eA*e[5mC]*eT*eG*eT*eA*eA*eG*e[5mC]*eA*e[5mC]*eT*eT*eT*eG) [compound 327885]")
74
>>> experimental_result("341805 (antisense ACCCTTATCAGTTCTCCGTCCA; all 2'-MOE, all phosphorothioate, methylation of C not given here) [compound 341805]")
63
>>> experimental_result("327916 (antisense eT*eG*eG*e[5mC]*eA*eT*eT*e[5mC]*eA*e[5mC]*e[5mC]*eG*e[5mC]*eG*eT*eG*e[5mC]*e[5mC]*eT*eT*eA*eA) [compound 327916]")
108
>>> experimental_result("327923 (antisense eG*eA*eA*eA*eG*eA*eG*eA*e[5mC]*e[5mC]*eG*eG*eT*eT*e[5mC]*eA*e[5mC]*eT*eG*eT*eG*eA) [compound 327923]")
86
>>> experimental_result("327918 (antisense e[5mC]*eT*eA*eG*eT*eA*e[5mC]*eA*eT*e[5mC]*eA*eT*e[5mC]*eT*eA*eT*eA*e[5mC]*eT*eG*eT*eA) [compound 327918]")
75
>>> experimental_result("327900 (antisense e[5mC]*eT*eG*e[5mC]*e[5mC]*eT*eG*eT*e[5mC]*eT*eG*eT*eG*e[5mC]*e[5mC]*eT*eG*e[5mC]*eT*eG*eT) [compound 327900]")
111
>>> experimental_result("327952 (antisense e[5mC]*eT*eA*e[5mC]*eG*e[5mC]*eG*eT*eA*eT*eT*e[5mC]*eT*eT*eA*eA*eG*e[5mC]*eA*eA*eT*eA) [compound 327952]")
93
>>> experimental_result("327957 (antisense e[5mC]*eA*e[5mC]*eA*eA*eG*eT*eT*e[5mC]*eG*eG*eA*eT*e[5mC]*eT*eA*e[5mC]*eG*eG*eG*eT*eT) [compound 327957]")
69

---

System: follistatin
experimental.protocol: Follistatin mRNA expression in HepG2 cells
Format: cell-based, human
experimental.conditions: Experiment 2, insulin treated: HepG2 cells transfected with oligomeric compound, 1 nM insulin for four hours; UTC + 1 nM insulin = 100
In the oligonucleotide strings, read from the 5' end, every base follows the letter of its sugar. An asterisk marks phosphorothioate; unmarked linkages are phosphodiester. Other units and linkages are bracketed, terminal groups are in braces. A string of capitals states the bases alone. e = 2'-O-(2-methoxyethyl) (MOE); [5mC] = 5-methylcytosine; d = 2'-deoxy (DNA)
quantity.kind: Follistatin mRNA expression

>>> experimental_result("327949 (antisense e[5mC]*eA*e[5mC]*eA*eA*eA*eT*eT*e[5mC]*eG*eG*eA*eT*e[5mC]*eT*eA*e[5mC]*eA*eG*eG*eG*eT*eA) [compound 327949]")
111
>>> experimental_result("327920 (antisense eG*eA*eG*eA*e[5mC]*e[5mC]*e[5mC]*eA*eG*eT*eA*eG*e[5mC]*e[5mC]*eA*eG*eA*eT*eG*eT*eA*eG*e[5mC]*eT) [compound 327920]")
102
>>> experimental_result("328367 (eA*e[5mC]*eT*eG*eA*dG*dG*dG*d[5mC]*dG*dG*d[5mC]*d[5mC]*d[5mC]*dG*eG*eG*e[5mC]*eA*eG) [compound 328367]")
107

---

System: Glut4
experimental.protocol: Glut4 mRNA expression in adipocytes (real-time PCR)
Format: cell-based, human
experimental.conditions: differentiating adipocytes transfected with oligomeric compound
In the oligonucleotide strings, read from the 5' end, every base follows the letter of its sugar. An asterisk marks phosphorothioate; unmarked linkages are phosphodiester. Other units and linkages are bracketed, terminal groups are in braces. A string of capitals states the bases alone. e = 2'-O-(2-methoxyethyl) (MOE); [5mC] = 5-methylcytosine; d = 2'-deoxy (DNA)
quantity.kind: GLUT4 mRNA

>>> experimental_result("328434 (antisense e[5mC]*eG*e[5mC]*eA*eT*d[5mC]*dT*dT*dG*dA*d[5mC]*dT*dG*dT*dA*eG*e[5mC]*eA*eT*eG) [compound 328434]")
"83 percentage of untreated control (UTC)"
>>> experimental_result("328417 (antisense eT*eA*eA*eT*eT*dT*dT*dA*dG*dA*dA*dT*d[5mC]*dT*dT*eA*eA*e[5mC]*eG*e[5mC]) [compound 328417]")
"68 percentage of untreated control (UTC)"
>>> experimental_result("328093 (antisense eT*eA*eA*eA*e[5mC]*eA*eT*e[5mC]*eA*e[5mC]*eT*eG*e[5mC]*eA*eA*eG*eT*e[5mC]*eT*eT*eA) [compound 328093]")
"73 percentage of untreated control (UTC)"
>>> experimental_result("327937 (antisense eG*eA*eT*eT*e[5mC]*eA*e[5mC]*eA*eA*e[5mC]*eA*e[5mC]*e[5mC]*eA*eG*e[5mC]*eT) [compound 327937]")
"63 percentage of untreated control (UTC)"
>>> experimental_result("327888 (antisense eA*eA*eT*eG*e[5mC]*e[5mC]*e[5mC]*e[5mC]*eT*eA*eA*eA*eA*eA*eT*e[5mC]*e[5mC]*eT*eT*eA*eT) [compound 327888]")
"84 percentage of untreated control (UTC)"
>>> experimental_result("328400 (antisense eA*eG*eT*eT*e[5mC]*dA*dA*dA*dA*d[5mC]*dT*d[5mC]*dA*dA*dT*e[5mC]*e[5mC]*e[5mC]*eA*eA) [compound 328400]")
"18 percentage of untreated control (UTC)"
>>> experimental_result("327960 (antisense eG*eT*e[5mC]*eT*eG*eT*e[5mC]*eA*eA*eT*eT*e[5mC]*eA*eT*eA*eG*eG*eT*e[5mC]*eA*eT) [compound 327960]")
"34 percentage of untreated control (UTC)"
>>> experimental_result("327956 (antisense e[5mC]*eA*e[5mC]*eA*eG*eT*eT*eG*e[5mC]*e[5mC]*eA*eG*e[5mC]*eT*eG*eA*eG*eA*eT*eT*eA) [compound 327956]")
"69 percentage of untreated control (UTC)"
>>> experimental_result("328651 (eG*eG*eT*eA*eA*dG*dA*dG*dG*dA*dT*dG*d[5mC]*dG*d[5mC]*eT*eG*e[5mC]*eT*e[5mC]; antisense) [compound 328651]")
"78 percentage of untreated control (UTC)"
>>> experimental_result("328677 (eT*e[5mC]*e[5mC]*eT*eG*dG*dA*dT*dG*dA*dT*dA*dT*d[5mC]*dT*eA*e[5mC]*e[5mC]*eT*e[5mC]; antisense) [compound 328677]")
"44 percentage of untreated control (UTC)"
>>> experimental_result("327904 (antisense eA*e[5mC]*eT*e[5mC]*eA*e[5mC]*e[5mC]*eG*eA*e[5mC]*eA*eG*e[5mC]*eG*eT*eT*eG*eA*eA*eT*eG*eT*eT) [compound 327904]")
"40 percentage of untreated control (UTC)"
>>> experimental_result("328132 (antisense eG*eT*eG*eA*eG*eA*eG*eT*eA*eG*e[5mC]*eA*eT*eG*eT*eT*eT*eG*eT*e[5mC]*eT) [compound 328132]")
"67 percentage of untreated control (UTC)"
>>> experimental_result("328362 (eT*eG*eT*eG*eT*dT*dT*dT*d[5mC]*dT*dG*dA*d[5mC]*dT*d[5mC]*eA*eG*eT*e[5mC]*eA) [compound 328362]")
"80 percentage of untreated control (UTC)"
>>> experimental_result("327928 (antisense eA*eA*e[5mC]*e[5mC]*eG*eA*eT*eT*eT*e[5mC]*eA*eG*eA*eT*eG*eG*eT*eG*e[5mC]*eT*eA*eG) [compound 327928]")
"39 percentage of untreated control (UTC)"
>>> experimental_result("328112 (antisense eA*eT*e[5mC]*eA*eT*eT*eA*e[5mC]*eT*eG*eG*eA*eT*eT*eG*e[5mC]*eT*eG*eT*eA*eA) [compound 328112]")
"97 percentage of untreated control (UTC)"
